# System: Mycobacterium tuberculosis
# test.name: Cornell M. t heat shock assay; note: in the data most compounds retested in dose-response had high values
# Assay type: functional, organism-based
# Design: dose or concentration left out as unconfirmed
Screen size: about 69,000 compounds; about 950 (1.4%) showed an effect of 50% or more. The full list was thinned out, with strong results kept by preference.
endpoint.name: Percent Effect (%)
Note: unit % is implicit; provide only the numeric part.

// worked examples, Percent Effect included
Cc1nc(CN2C[C@@H]3CN(C(=O)C4CC4)C[C@@H]3C2=O)cs1.O=C(O)C(F)(F)F ... -7.229
Cl.NC(=O)C1CNCCN1C(=O)COc1ccccc1 (stereo not given) ... -11.48

Lookup: Can you share its Percent Effect? I mean this compound: Clc1ccc(C2(CNC3=NCCN3)CC2)cc1.I
Found: -24.96

Lookup: Lookup O=C(NCC1CC1)C12CC(CN1Cc1nccs1)C2
Found: 54.2

Lookup: Lookup Cn1ncc2ccc(C3CCCN(Cc4cccs4)C3)nc21 (stereo not given)
Found: 13.99

Lookup: Lookup COCC(=O)Nc1nn(Cc2ccc(F)cc2)cc1Cl
Found: -26.17

Lookup: Lookup Cn1cccc1C(=O)N1CCC2(CCN2c2ncccn2)C1.O=C(O)C(F)(F)F (stereo not given)
Found: 8.832

Lookup: Lookup CO[C@H]1C[C@@H]2CN(C(=O)c3cc4cccc(F)c4[nH]3)C[C@@H]2C1
Found: 17.75
